Value source: patent US20130310374A1

Answer each item with its documented IC50.
- System: K562
- measurement.notes: Cytotoxicity propidium iodide assay, K562
- Type: cell-based
- conditions.used: Homo sapiens; K562 (CML), 48 hours treatment; read-out: IC50 Values in μM, C6a
Number plus unit, in that order.

Query block: State measured IC50 of the compound `Cn1c(=O)n(-c2ccc(C(C)(C)C#N)nc2)c2c3cc(-c4cccnc4)ccc3ncc21` with K562.
Result block: 0.9 µM

Query block: State measured IC50 of the compound `Cn1c(=O)n(-c2ccc(C(C)(C)C#N)nc2)c2c3cc(-c4cnc(N)c(C(F)(F)F)c4)ccc3ncc21` with K562.
Result block: 0.056 µM

Query block: State measured IC50 of the compound `Cn1c(=O)n(-c2ccc(C(F)(F)F)nc2)c2c3cc(-c4cnc(N)c(C(F)(F)F)c4)ccc3ncc21` with K562.
Result block: 0.056 µM

Query block: State measured IC50 of the compound `CC(C)(C#N)c1ccc(-n2c(=O)n(CC#N)c3cnc4ccc(-c5cnc(N)c(C(F)(F)F)c5)cc4c32)cn1` with K562.
Result block: 0.4 µM

Query block: State measured IC50 of the compound `Cn1c(=O)n(-c2ccc(Cl)nc2C(F)(F)F)c2c3cc(-c4cccnc4)ccc3ncc21` with K562.
Result block: 0.224 µM

Query block: State measured IC50 of the compound `COc1ccc(-n2c(=O)n(C)c3cnc4ccc(-c5cnc6ccccc6c5)cc4c32)cn1` with K562.
Result block: 0.1 µM

Query block: State measured IC50 of the compound `Cn1c(=O)n(-c2ccc(Cl)nc2Cl)c2c3cc(-c4cccnc4)ccc3ncc21` with K562.
Result block: 0.144 µM

Query block: State measured IC50 of the compound `Cn1c(=O)n(CCN2CCOCC2)c2c3cc(-c4cnc5ccccc5c4)ccc3ncc21` with K562.
Result block: 0.7 µM

Query block: State measured IC50 of the compound `COc1ccc(-n2c(=O)n(C)c3cnc4ccc(-c5cnc(N)c(C(F)(F)F)c5)cc4c32)cn1` with K562.
Result block: 0.056 µM

* * *

- Test system: hPBMC
- measurement.notes: MTS toxicity assay in parallel to Con-A-induced IFN-γ assay
- Assay type: cell-based, human
- conditions.used: Con-A experiment
recorded.metric: % Toxicity at 0.025 μM (%)
Report the figure in % without appending any unit label.

Query block: State its % Toxicity at 0.025 μM: CC(C)(C#N)c1ccc(-n2c(=O)n(CC#N)c3cnc4ccc(-c5cnc(N)c(C(F)(F)F)c5)cc4c32)cn1 [Example 16]
Result block: 3

Query block: State its % Toxicity at 0.025 μM: COc1ccc(-n2c(=O)n(C)c3cnc4ccc(-c5cnc(N)c(C(F)(F)F)c5)cc4c32)cn1 [Example 19]
Result block: 18

Query block: State its % Toxicity at 0.025 μM: Cn1c(=O)n(-c2ccc(C(C)(C)C#N)nc2)c2c3cc(-c4cnc5ccccc5c4)ccc3ncc21 [Example 2]
Result block: 12

Query block: State its % Toxicity at 0.025 μM: Cn1c(=O)n(-c2ccc(C(F)(F)F)nc2)c2c3cc(-c4ccc(F)nc4F)ccc3ncc21 [Example 57]
Result block: 14

Query block: State its % Toxicity at 0.025 μM: Cn1c(=O)n(-c2ccc(C(C)(C)C#N)nc2)c2c3cc(-c4cnc(N)c(C(F)(F)F)c4)ccc3ncc21 [Example 3]
Result block: 21
